systemUnderTest: human CXCR3-A receptor (Homo sapiens (Human), UniProt P49682)
Sequence (P49682 whole entry): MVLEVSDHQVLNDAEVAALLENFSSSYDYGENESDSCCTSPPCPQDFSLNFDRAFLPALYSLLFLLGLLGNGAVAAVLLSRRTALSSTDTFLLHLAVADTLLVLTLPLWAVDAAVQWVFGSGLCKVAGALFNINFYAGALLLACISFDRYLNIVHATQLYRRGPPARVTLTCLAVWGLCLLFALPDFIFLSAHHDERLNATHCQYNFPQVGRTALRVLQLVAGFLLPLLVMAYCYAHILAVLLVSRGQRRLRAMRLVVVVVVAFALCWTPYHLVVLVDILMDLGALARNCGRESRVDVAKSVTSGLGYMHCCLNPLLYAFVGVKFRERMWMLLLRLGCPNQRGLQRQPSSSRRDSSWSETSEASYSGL
testDetails: 125I-CXCL10 competition radioligand binding assay
testContext: displacement of 125I-CXCL10 from membranes of CHO cells expressing human recombinant CXCR3-A
experimentalReadout: IC50 (nM)

CCC(c1ccc(Cl)cc1)N(Cc1ccc(OCCN2C(=O)CN(C)C2=O)c(C)c1)C[C@@H]1[C@@H](C(=O)O)C1(C)C (stereo partly drawn) [Example 115]	244

A: Cc1cc(CN([C@H]2C[C@@H](C(=O)O)C2)[C@H](C)c2ccc(Cl)cc2)ccc1OCCN1C(=O)CN(C)C1=O [Example 153]
B: COc1cc(CN([C@H]2C[C@@H](C(=O)O)C2)[C@@H](C)c2ccc3c(c2)CCO3)ccc1OCCn1c(=O)ccn(C)c1=O [Example 123]
Challenge: Which has the smaller recorded IC50, A or B ? Answer = label.
Response given: A

---

systemUnderTest: human CXCR3-A receptor (Homo sapiens (Human), UniProt P49682)
testDetails: 125I-CXCL10 competition radioligand binding assay
testContext: displacement of 125I-CXCL10 from membranes of CHO cells expressing human recombinant CXCR3-A
pIC50: −log10 of the molar value.
experimentalReadout: pIC50

I: C[C@@H](c1ccc(Cl)cc1)N(Cc1ccc(OCCN2C(=O)CN(C)C2=O)c(Cl)c1)C[C@H]1CC[C@H](C(=O)O)CC1
II: COc1cc(CN(C[C@H]2CC[C@@H](C(=O)O)C2)[C@@H](C)c2ccc3c(c2)CCO3)ccc1OCCN1C(=O)CCC1=O
Challenge: // pick larger pIC50 from pair: I vs II Answer = label.
Response given: I
(I: 6.94, II: 5.29)

---

systemUnderTest: human CXCR3-A receptor (Homo sapiens (Human))
testDetails: 125I-CXCL10 competition radioligand binding assay
testContext: displacement of 125I-CXCL10 from membranes of CHO cells expressing human recombinant CXCR3-A
experimentalReadout: IC50 (nM)

1: COc1cc(CN(C[C@@H]2CC[C@@H](C(=O)O)C2)[C@@H](C)c2ccc3c(c2)CCO3)ccc1OCCN1C(=O)CCC1=O
2: COc1cc(CN(C(C)c2ccc3c(c2)CCO3)[C@H]2C[C@@H](C(=O)O)C2)ccc1OCCn1c(=O)ccn(C)c1=O (stereo partly drawn)
3: COc1cc(CN(C[C@H]2CC[C@H](C(=O)O)CC2)[C@H](C)c2ccc(Cl)c(C)c2)ccc1OCCN1C(=O)CCC1=O
4: Cc1cc([C@H](C)N(Cc2ccc(OCCN3C(=O)CCC3=O)c(C)c2)[C@H]2C[C@@H](C(=O)O)C2)ccc1Cl
Challenge: List the 4 compounds shown above, ordered by increasing IC50. Use the labels to give the requested order.
Response given: 1, 3, 2, 4

1: CCC(c1ccc2c(c1)CCO2)N(Cc1ccc(OCCN2C(=O)CCC2=O)c(C)c1)C[C@H]1CC[C@H](C(=O)O)CC1 (stereo partly drawn)
2: COc1cc(CN(C[C@H]2CC[C@H](C(=O)O)CC2)C2CCc3cc(Cl)c(F)cc32)ccc1OCCN1C(=O)CCC1=O (stereo partly drawn)
Challenge: Which has the smaller recorded IC50, 1 or 2 ? Answer = label.
Response given: 1

---

systemUnderTest: human CXCR3-A receptor (Homo sapiens (Human))
testDetails: 125I-CXCL10 competition radioligand binding assay
testContext: displacement of 125I-CXCL10 from membranes of CHO cells expressing human recombinant CXCR3-A
pIC50: −log10 of the molar value.
experimentalReadout: pIC50

COc1cc(CN(C[C@H]2CC[C@H](C(=O)O)CC2)C2CCc3cc(F)c(Cl)cc32)ccc1OCCN1C(=O)CCC1=O (stereo partly shown)	6.20
Cc1cc(CN(C[C@H]2CC[C@H](C(=O)O)CC2)C(C)c2ccc(C#N)cc2)ccc1OCCN1C(=O)CCC1=O (stereo partly shown)	6.99

1: Cc1cc(CN(C[C@H]2CC[C@H](C(=O)O)CC2)[C@@H](C)c2ccc(Cl)cc2)ccc1OCCN1C(=O)CCC1=O
2: CCC(c1ccc2c(c1)CCO2)N(Cc1ccc(CCCN2C(=O)CCC2=O)c(OC)c1)C[C@H]1CC[C@H](C(=O)O)CC1 (stereo partly shown)
Challenge: Which has the smaller recorded pIC50, 1 or 2 ? Answer = label.
Response given: 2
(2: 7.07, 1: 7.42)

I: CC(c1ccc2c(c1)CCO2)N(Cc1ccc(OCCN2C(=O)CN(C)C2=O)c(Cl)c1)C[C@H]1CC[C@H](C(=O)O)CC1 (stereo partly shown)
II: COc1cc(CN(C[C@H]2CC[C@H](C(=O)O)CC2)C(C)c2ccc(C(F)(F)F)cc2)ccc1OCCN1C(=O)CCC1=O (stereo partly shown)
Challenge: // pick larger pIC50 from pair: I vs II Answer = label.
Response given: II
(II: 7.15, I: 6.95)

A: CCC(c1ccc(Cl)cc1)N(Cc1ccc(OCCN2C(=O)CCC2=O)c(C)c1)C[C@H]1CC[C@H](C(=O)O)CC1 (stereo partly shown)
B: CCc1cc(CN(C[C@H]2CC[C@H](C(=O)O)CC2)C(C)c2ccc3c(c2)CCO3)ccc1OCCN1C(=O)CCC1=O (stereo partly shown)
C: Cc1cc(CN(C[C@H]2CC[C@H](C(=O)O)CC2)[C@@H](C)c2ccc(Cl)cc2)ccc1CCCN1C(=O)CCC1=O
Challenge: List these items ordered by pIC50, big to small. Use the labels to give the requested order.
Response given: B, A, C
(B: 7.35, A: 6.92, C: 6.32)

1: CCC(c1ccc(Cl)cc1)N(Cc1ccc(OCCN2C(=O)CN(C)C2=O)c(OC)c1)C[C@H]1CC[C@H](C(=O)O)CC1 (stereo partly shown)
2: Cc1cc(CN(C[C@H]2CC[C@H](C(=O)O)CC2)[C@H](C)c2ccc(Cl)cc2)ccc1OCCN1C(=O)CCC1=O
3: COc1cc(CN(C[C@H]2CC[C@H](C(=O)O)C2)[C@@H](C)c2ccc3c(c2)CCO3)ccc1OCCN1C(=O)CCC1=O
Challenge: List these items ordered by pIC50, big to small. Use the labels to give the requested order.
Response given: 2, 1, 3

---

systemUnderTest: human CXCR3-A receptor (Homo sapiens (Human))
testDetails: 125I-CXCL10 competition radioligand binding assay
testContext: displacement of 125I-CXCL10 from membranes of CHO cells expressing human recombinant CXCR3-A
experimentalReadout: IC50 (nM)

// below: answered compounds
COc1cc(CN(C[C@H]2CC[C@H](C(=O)O)CC2)C(C)c2ccc3c(c2)CCO3)ccc1OCCn1c(=O)ccn(C)c1=O (some centres unmarked) [Example 59]	195
CCC(c1ccc(Cl)cc1)N(Cc1ccc(OCCN2C(=O)CCC2=O)c(C)c1)C[C@@H]1[C@@H](C(=O)O)C1(C)C (some centres unmarked) [Example 118]	190
CCc1cc(CN(C[C@H]2CC[C@H](C(=O)O)CC2)[C@H]2CCc3cc(Cl)ccc32)ccc1OCCN1C(=O)CCC1=O [Example 71]	176
COc1cc(CN(C[C@H]2CC[C@H](C(=O)O)CC2)C(C)c2ccc(Cl)c(F)c2)ccc1OCCN1C(=O)CCC1=O (some centres unmarked) [Example 82]	46
CCOC(=O)[C@H]1CC[C@H](CN(Cc2ccc(OCCN3C(=O)CCC3=O)c(OC)c2)C(C)c2ccc3c(c2)CCO3)CC1 (relative stereo) [Example 1.1]	177

A: O=C1CCC(=O)N1CCOc1ccc(CN(C[C@H]2CC[C@H](C(=O)O)CC2)C2CCc3cc(F)c(Cl)cc32)cc1F (some centres unmarked) [Example 97]
B: Cc1cc(CN([C@H]2C[C@@H](C(=O)O)C2)[C@H](C)c2ccc(Cl)cc2)ccc1OCCN1C(=O)CCC1=O [Example 132]
Challenge: // pick larger IC50 from pair: A vs B Answer = label.
Response given: A
(A: 4640 nM, B: 170 nM)

I: CCc1cc(CN(C[C@H]2CC[C@H](C(=O)O)CC2)[C@@H](C)c2ccc(Cl)cc2)ccc1OCCN1C(=O)CCC1=O [Example 75]
II: COc1cc(CN([C@H]2C[C@@H](C(=O)O)C2)[C@H](C)c2ccc(Cl)c(Cl)c2)ccc1OCCN1C(=O)CCC1=O [Example 152]
III: COc1cc(CN(C[C@H]2CC[C@H](C(=O)O)CC2)[C@@H](C)c2ccc(Cl)cc2)ccc1SCCN1C(=O)CCC1=O [Example 87]
IV: CCc1cc(CN(C[C@H]2CC[C@H](C(=O)O)CC2)C2CCc3cc(F)c(Cl)cc32)ccc1OCCN1C(=O)CCC1=O (some centres unmarked) [Example 95]
V: COc1cc(CN(C[C@H]2CC[C@H](C(=O)O)CC2)C2CCc3c2ccc(F)c3Cl)ccc1OCCN1C(=O)CCC1=O (some centres unmarked) [Example 93]
Challenge: Exam item: list the entries in increasing order of IC50. Use the labels to give the requested order.
Response given: III, I, V, II, IV
